Recorded EC50 for the following compounds
Biological target: NMDA receptor 2B (Homo sapiens (Human), UniProt Q05586+Q13224)
Sequence (Q13224 27-1484, other chains not shown): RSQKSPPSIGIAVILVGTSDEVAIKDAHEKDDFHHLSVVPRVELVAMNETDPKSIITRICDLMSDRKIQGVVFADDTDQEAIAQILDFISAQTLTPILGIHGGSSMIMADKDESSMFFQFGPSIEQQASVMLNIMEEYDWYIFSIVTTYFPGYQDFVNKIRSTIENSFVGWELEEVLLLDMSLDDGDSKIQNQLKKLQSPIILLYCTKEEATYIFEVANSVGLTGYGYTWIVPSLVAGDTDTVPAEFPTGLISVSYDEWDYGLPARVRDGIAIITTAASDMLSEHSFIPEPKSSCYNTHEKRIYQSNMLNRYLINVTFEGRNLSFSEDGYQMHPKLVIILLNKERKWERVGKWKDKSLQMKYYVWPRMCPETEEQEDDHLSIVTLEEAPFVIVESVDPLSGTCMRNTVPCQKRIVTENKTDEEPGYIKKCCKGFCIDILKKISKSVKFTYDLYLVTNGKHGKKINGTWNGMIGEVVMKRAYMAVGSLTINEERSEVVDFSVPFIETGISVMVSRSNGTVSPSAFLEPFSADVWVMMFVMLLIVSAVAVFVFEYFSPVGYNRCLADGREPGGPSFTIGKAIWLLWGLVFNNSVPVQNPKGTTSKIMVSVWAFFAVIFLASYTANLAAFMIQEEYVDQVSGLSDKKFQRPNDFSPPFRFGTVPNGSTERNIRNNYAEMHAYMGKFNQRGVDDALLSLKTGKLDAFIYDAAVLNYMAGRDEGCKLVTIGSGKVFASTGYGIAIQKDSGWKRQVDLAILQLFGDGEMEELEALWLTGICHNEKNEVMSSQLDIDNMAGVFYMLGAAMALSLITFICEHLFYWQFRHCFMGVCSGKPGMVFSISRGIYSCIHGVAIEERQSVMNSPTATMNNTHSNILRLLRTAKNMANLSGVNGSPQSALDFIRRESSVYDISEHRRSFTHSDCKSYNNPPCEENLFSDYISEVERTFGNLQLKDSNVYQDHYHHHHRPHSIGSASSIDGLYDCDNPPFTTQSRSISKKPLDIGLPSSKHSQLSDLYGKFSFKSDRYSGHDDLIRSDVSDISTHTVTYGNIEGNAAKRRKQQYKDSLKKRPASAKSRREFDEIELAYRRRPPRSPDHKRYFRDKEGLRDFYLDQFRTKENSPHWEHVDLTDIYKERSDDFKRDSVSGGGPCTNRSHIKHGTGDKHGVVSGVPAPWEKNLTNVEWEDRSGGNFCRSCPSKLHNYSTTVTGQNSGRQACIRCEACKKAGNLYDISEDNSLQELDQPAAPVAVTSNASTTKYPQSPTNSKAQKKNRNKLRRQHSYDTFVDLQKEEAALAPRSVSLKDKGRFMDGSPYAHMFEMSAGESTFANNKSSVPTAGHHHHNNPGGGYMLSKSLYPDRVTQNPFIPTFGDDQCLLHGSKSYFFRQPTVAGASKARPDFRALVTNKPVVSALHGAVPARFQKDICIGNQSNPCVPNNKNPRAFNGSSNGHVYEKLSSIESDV
Test: Automated patch-clamp (QPatch HTX), NMDA receptor 2B subtype

compound	EC50
CC[C@]1(O)CC[C@@]2(C)[C@@H](CC(=O)[C@@H]3[C@@H]2CC[C@]2(C)[C@@H]([C@H](C)CCC(C)(C)O)CC[C@@H]32)C1 [Compound U6410]	> 10000 nM
C[C@H](CC[C@](C)(O)C(F)(F)F)[C@H]1CC[C@H]2[C@@H]3[C@@H](C)C=C4C[C@@](C)(O)CC[C@]4(C)[C@H]3CC[C@]12C [Compound U6473]	> 10000 nM
CC[C@]1(O)CC[C@@]2(C)C(=C[C@@H](C)[C@H]3[C@@H]4CC[C@H]([C@H](C)CCC(C)(C)O)[C@@]4(C)CC[C@@H]32)C1 [Compound U6408]	132 nM
CC[C@]1(O)CC[C@@]2(C)C(=C[C@H](O)[C@H]3[C@@H]4CC[C@H]([C@H](C)CCC(C)(C)O)[C@@]4(C)CC[C@@H]32)C1 [Compound U6429]	667 nM
CC[C@]1(O)CC[C@@]2(C)C(=C[C@@H](O)[C@H]3[C@@H]4CC[C@H]([C@H](C)CCC(C)(C)O)[C@@]4(C)CC[C@@H]32)C1 [Compound U6450]	66 nM
CC[C@]1(O)CC[C@@]2(C)C(=CC(=O)[C@H]3C4CC[C@H]([C@H](C)CCC(C)(C)O)[C@@]4(C)CC[C@@H]32)C1 (stereo partly shown) [Compound U6461]	> 10000 nM
CC[C@]1(O)CC[C@@]2(C)[C@@H](C[C@H](O)[C@@H]3[C@@H]2CC[C@]2(C)[C@@H]([C@H](C)CCC(C)(C)O)CC[C@@H]32)C1 [Compound U6479]	1420 nM
CC[C@]1(O)CC[C@@]2(C)C(=C[C@@](C)(O)[C@H]3[C@@H]4CC[C@H]([C@H](C)CCC(C)(C)O)[C@@]4(C)CC[C@@H]32)C1 [Compound U6438]	> 10000 nM
C[C@@H]1C=C2C[C@@](C)(O)CC[C@]2(C)[C@H]2CC[C@]3(C)[C@@H]([C@H](C)CC4(O)CCC(C)(C)CC4)CC[C@H]3[C@H]12 [Compound U6477]	698 nM
CC[C@]1(O)CC[C@@]2(C)C(=C[C@H](C)[C@H]3[C@@H]4CC[C@H]([C@H](C)CCC(C)(C)O)[C@@]4(C)CC[C@@H]32)C1 [Compound U6409]	> 10000 nM
C[C@H](CC1(O)CCC(C)(C)CC1)[C@H]1CC[C@H]2[C@@H]3[C@@H](C)C=C4C[C@@](C)(O)CC[C@]4(C)[C@H]3CC[C@]12C [Compound U6478]	160 nM
CC[C@]1(O)CC[C@@]2(C)C(=C[C@](C)(O)[C@H]3[C@@H]4CC[C@H]([C@H](C)CCC(C)(C)O)[C@@]4(C)CC[C@@H]32)C1 [Compound U6437]	741 nM
C[C@@H]1C=C2C[C@@](C)(O)CC[C@]2(C)[C@H]2CC[C@]3(C)[C@@H]([C@H](C)CC[C@](C)(O)C(F)(F)F)CC[C@H]3[C@H]12 [Compound U6472]	22 nM
